- assayed_target: PRKX (Homo sapiens, UniProt P51817)
- Construct: endogenous in cells
- Sequence (P51817 1-358): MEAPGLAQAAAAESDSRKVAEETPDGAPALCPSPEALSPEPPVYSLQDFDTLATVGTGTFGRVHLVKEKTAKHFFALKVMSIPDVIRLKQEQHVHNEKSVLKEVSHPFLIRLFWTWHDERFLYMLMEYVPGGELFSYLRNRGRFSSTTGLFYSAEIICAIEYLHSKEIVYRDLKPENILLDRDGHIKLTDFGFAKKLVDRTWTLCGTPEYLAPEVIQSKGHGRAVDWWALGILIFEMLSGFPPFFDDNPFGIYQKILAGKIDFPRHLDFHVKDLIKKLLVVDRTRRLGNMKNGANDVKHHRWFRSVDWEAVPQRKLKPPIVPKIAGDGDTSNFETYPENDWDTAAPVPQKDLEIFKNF
- assay_protocol: Kinobeads full dose-response competition binding: PRKX
- settings: Gene Name PRKX; EC50 with Correction, doses in nM; read-out: apparent Kd
measured_endpoint: Kd (nM)
Dear colleague, please return just the value in nM, with no unit written.

IN: Fill in reported Kd for this entry: CCn1c(-c2nonc2N)nc2c(C#CC(C)(C)O)nc(OCCNC)cc21 [GSK949675A]
OUT: 221

IN: Given the compound CCn1c(-c2nonc2N)nc2c(C#CC(C)(C)O)nc(OCCN)cc21 [GSK902056A] , write its reported Kd.
OUT: 127

* * *

- assayed_target: endogenous kinases and other proteins enriched by Kinobeads from mixed cancer cell lysates (Homo sapiens, UniProt Q96PY6)
- Construct: endogenous in cells
- Sequence (Q96PY6 whole entry): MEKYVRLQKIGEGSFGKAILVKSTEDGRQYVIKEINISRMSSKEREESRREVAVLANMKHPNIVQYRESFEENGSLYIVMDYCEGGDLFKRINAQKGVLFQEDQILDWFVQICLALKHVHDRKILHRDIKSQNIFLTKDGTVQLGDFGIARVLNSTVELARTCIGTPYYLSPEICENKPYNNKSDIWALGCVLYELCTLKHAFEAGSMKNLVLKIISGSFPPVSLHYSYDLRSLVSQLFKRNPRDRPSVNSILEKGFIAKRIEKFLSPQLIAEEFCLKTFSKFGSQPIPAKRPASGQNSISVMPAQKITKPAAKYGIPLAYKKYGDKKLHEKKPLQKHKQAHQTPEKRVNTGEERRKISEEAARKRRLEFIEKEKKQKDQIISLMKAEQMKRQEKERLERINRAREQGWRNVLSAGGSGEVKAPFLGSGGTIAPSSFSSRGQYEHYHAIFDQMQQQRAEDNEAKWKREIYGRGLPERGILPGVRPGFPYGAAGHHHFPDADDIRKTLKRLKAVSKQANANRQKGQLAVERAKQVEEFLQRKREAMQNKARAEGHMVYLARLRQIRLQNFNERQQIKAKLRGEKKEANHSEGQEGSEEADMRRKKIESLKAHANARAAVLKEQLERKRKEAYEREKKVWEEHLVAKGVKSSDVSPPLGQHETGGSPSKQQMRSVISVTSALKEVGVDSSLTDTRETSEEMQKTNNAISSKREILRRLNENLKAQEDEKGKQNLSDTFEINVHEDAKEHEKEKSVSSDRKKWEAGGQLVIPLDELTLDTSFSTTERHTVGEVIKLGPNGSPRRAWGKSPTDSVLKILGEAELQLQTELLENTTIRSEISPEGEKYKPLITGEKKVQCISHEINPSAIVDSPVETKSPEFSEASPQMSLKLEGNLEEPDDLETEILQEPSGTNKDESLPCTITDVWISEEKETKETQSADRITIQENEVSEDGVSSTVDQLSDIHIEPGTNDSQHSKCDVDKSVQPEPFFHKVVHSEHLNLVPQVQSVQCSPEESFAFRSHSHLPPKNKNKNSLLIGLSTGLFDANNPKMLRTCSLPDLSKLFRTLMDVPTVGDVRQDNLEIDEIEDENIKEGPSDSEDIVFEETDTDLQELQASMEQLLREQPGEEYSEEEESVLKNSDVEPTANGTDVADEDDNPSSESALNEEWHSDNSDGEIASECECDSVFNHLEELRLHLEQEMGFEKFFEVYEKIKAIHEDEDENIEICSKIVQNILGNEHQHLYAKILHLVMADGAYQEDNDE
- assay_protocol: Kinobeads pulldown, full dose-response (eight doses);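 further: competition with Kinobeads ε after inhibitor preincubation in lysate (5 mg/ml protein) for 45 min at 4 °C, DMSO control, doses 0.3–1,000 nM, label-free LC–MS/MS quantification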
- Format: binding
- settings: target NEK1
measured_endpoint: EC50 (nM)
Field: numeric (nM). Do not append units.

IN: Read off the recorded EC50 for Cn1cc(-c2nc(N[C@@H]3CCCC[C@@H]3N)c(F)c3c2C(=O)NC3)cn1
OUT: 589

* * *

- assayed_target: PKN3 (Homo sapiens)
- Sequence (Q6P5Z2 whole entry): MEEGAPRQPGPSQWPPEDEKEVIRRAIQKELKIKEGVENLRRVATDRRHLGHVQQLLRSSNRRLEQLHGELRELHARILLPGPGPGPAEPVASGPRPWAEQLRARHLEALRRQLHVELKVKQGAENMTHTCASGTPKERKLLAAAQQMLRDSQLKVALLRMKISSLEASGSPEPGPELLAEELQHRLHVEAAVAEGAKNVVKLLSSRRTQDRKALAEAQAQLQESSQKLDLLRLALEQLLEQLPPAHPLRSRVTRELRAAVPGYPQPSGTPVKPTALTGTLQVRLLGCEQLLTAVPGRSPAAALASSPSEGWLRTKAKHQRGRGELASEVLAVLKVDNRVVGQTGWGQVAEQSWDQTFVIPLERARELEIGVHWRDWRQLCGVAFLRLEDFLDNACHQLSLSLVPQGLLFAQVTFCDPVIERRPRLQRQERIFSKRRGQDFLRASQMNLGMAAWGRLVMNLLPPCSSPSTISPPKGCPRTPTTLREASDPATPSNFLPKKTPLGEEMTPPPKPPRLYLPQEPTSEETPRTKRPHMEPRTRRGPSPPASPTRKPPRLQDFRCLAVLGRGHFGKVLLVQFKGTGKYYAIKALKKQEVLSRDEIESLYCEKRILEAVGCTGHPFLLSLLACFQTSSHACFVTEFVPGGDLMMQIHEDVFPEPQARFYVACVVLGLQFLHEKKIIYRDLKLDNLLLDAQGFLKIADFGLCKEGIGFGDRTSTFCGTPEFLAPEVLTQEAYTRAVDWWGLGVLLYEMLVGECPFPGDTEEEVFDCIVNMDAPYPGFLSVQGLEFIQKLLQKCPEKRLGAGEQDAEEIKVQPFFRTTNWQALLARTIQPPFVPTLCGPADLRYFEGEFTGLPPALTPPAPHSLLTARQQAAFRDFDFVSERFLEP
- assay_protocol: Kinobeads full dose-response competition binding: PKN3;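 further: inhibitor pre-incubated 45 min at 4 °C in cell lysate (5 mg/ml protein), then competed against Kinobeads ε pulldown for 30 min, bound kinase quantified by nano LC–MS/MS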
- Parameters: endogenous in cells
- settings: Gene Name PKN3; eight-dose curve fit, doses in nM
In this section we review reported EC50 values for a set of compounds.
For clarity, give the value followed by its unit.

- compound: "CCn1c(-c2nonc2N)nc2c(C#CC(C)(C)O)nc(OCCNC)cc21 [GSK949675A]"
  EC50: "89.8 nM"
- compound: "NCc1ccc(-c2nc(-c3ccncc3)c(-c3ccc(Cl)c(O)c3)[nH]2)cc1"
  EC50: "38.4 nM"

Moving on to the next compound.
IN: Write down EC50 measured for item CCn1c(-c2nonc2N)nc2c(C#CC(C)(C)O)nc(OCCN)cc21 [GSK902056A]
OUT: 10.2 nM

* * *

- assayed_target: PAK4 (Homo sapiens, UniProt O96013)
- Construct: a mixture of lysates from five cancer cell lines; endogenous in cells
- Sequence (O96013 whole entry): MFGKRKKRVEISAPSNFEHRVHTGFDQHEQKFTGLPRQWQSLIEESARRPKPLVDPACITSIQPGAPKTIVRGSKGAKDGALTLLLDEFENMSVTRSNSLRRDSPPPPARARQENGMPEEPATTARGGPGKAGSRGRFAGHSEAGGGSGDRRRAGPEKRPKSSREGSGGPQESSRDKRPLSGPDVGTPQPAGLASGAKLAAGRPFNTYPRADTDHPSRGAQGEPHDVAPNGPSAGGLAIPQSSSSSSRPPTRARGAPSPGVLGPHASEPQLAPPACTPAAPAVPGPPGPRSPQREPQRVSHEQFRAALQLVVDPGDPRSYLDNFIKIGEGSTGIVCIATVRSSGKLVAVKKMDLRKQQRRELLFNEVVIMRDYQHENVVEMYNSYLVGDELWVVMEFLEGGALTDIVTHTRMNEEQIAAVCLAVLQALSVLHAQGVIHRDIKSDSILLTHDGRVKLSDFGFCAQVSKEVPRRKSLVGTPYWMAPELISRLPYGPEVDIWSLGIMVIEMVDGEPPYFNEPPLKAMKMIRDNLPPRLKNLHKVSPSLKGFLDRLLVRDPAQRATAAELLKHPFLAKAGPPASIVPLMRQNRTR
- assay_protocol: Kinobeads full dose-response competition binding: PAK4
- settings: Gene Name PAK4; eight-dose curve fit, doses in nM
measured_endpoint: EC50 (nM)
Give just the number in nM; leave the unit off.

- molecule: "CCn1c(-c2nonc2N)nc2c(C#CC(C)(C)O)nc(OCCNC)cc21 [GSK949675A]"
  readout_units: "nM"
  EC50: 316

Let us move to another entry and its EC50.
IN: With PAK4 (Homo sapiens, UniProt O96013) as the test system, provide measured EC50 for this molecule: Cc1cccc(Nc2nc(N[C@H]3CCCC[C@H]3N)ncc2C(N)=O)c1 [GSK986310C]
OUT: 135
